# system tested: EGFR on cells (A431, NCI-H292, NCI-H322, NCI-H441) (human, UniProt P00533 25-1210)
# protocol text: cell-based or functional assay
endpoint label: IC50 A431 (nM), cell viability
Value expressed in nM; do not type the unit.

Below, 3 binders whose answers are already recorded.
May I ask what IC50 A431 (nM), cell viability has been recorded for 83v2cy5-mal-PEG4-VC-MMAF (designed binder, mal-PEG4-VC-MMAF on the cysteine) MLPAPKNLVVSEVTEDSARLSWDDPWAFYESFLIQYQESEKVGEAIVLTVPGSERSYDLTGLKPGTEYTVSIYGVHNVYKDTNMRGLPLSAIFTTGGHHHHHHC ?
1.6

Find the recorded IC50 A431 (nM), cell viability belonging to 83v2cy5-mal-PEG4-VK-MMAE (designed binder, mal-PEG4-VK-MMAE on the cysteine) MLPAPKNLVVSEVTEDSARLSWDDPWAFYESFLIQYQESEKVGEAIVLTVPGSERSYDLTGLKPGTEYTVSIYGVHNVYKDTNMRGLPLSAIFTTGGHHHHHHC and report it.
19.6

Which IC50 A431 (nM), cell viability value is on record for 83v2cy5-mal-PEG4-VC-MMAE (designed binder, mal-PEG4-VC-MMAE on the cysteine) MLPAPKNLVVSEVTEDSARLSWDDPWAFYESFLIQYQESEKVGEAIVLTVPGSERSYDLTGLKPGTEYTVSIYGVHNVYKDTNMRGLPLSAIFTTGGHHHHHHC ?
315

# evaluate next
Record request: IC50 A431 (nM), cell viability value, item 83v2cy5-mal-PEG4-VK-MMAF (designed binder, mal-PEG4-VK-MMAF on the cysteine) MLPAPKNLVVSEVTEDSARLSWDDPWAFYESFLIQYQESEKVGEAIVLTVPGSERSYDLTGLKPGTEYTVSIYGVHNVYKDTNMRGLPLSAIFTTGGHHHHHHC
3.9
